- subject-of-test: T1, Human CD137 ECD (human)
- T1 construct: entry includes C-terminal His-tag and biotin acceptor peptide; also called human CD137 extracellular domain; 4-1BB
- protocol-details: Biacore SPR, vs parent H183/L072
Listing of recorded fold change of affinity by entry.
Give the quantity in fold, number only.

[
  {
    "binder": "H183/L072 VL P56F (antibody, name in Kabat numbering, V domains shown, Dual-Ig) VH: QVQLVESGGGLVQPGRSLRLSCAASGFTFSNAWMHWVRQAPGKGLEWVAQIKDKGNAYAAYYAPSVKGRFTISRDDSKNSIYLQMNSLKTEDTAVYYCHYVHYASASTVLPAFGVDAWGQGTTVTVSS VL: DIVMTQSPLSLPVTPGEPASISCQASQELVHMNRNTYLHWYQQKPGQAPRLLIYKVSNRFFGVPDRFSGSGSGTDFTLKISRVEAEDVGVYYCAQGTSVPFTFGQGTKLEIK",
    "unit-of-measure": "fold",
    "fold change of affinity": 0
  }
]

**Query** State its fold change of affinity for this binder: H183/L072 VL N53W (antibody, name in Kabat numbering, V domains shown, Dual-Ig) VH: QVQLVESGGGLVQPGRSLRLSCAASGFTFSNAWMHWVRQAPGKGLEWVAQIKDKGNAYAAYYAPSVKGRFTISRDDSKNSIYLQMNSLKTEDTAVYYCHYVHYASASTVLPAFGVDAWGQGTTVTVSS VL: DIVMTQSPLSLPVTPGEPASISCQASQELVHMNRNTYLHWYQQKPGQAPRLLIYKVSWRFPGVPDRFSGSGSGTDFTLKISRVEAEDVGVYYCAQGTSVPFTFGQGTKLEIK
**Result** 0

Entry source: patent US20210388087A1
